# Test system: Italian ryegrass
# test_summary: Test E Italian ryegrass
# Type: in vivo, Lolium multiflorum
# assay_context: Preemergence, Rate 250 g/ha
metric: I. Ryegrass plant response rating (0 to 100 scale)
One number for each entry.

// below: answered compounds
Given the entry CC(C)Cn1c(=O)on(C(=O)N(c2ccc(F)cc2)C(C)C)c1=O [Compound 169] , report its measured I. Ryegrass plant response rating (0 to 100 scale). 75

Given the entry CC(C)=CCn1c(=O)on(C(=O)N(c2ccc(F)cc2)C(C)C)c1=O [Compound 288] , report its measured I. Ryegrass plant response rating (0 to 100 scale). 30

Given the entry CC(C)N(C(=O)n1oc(=O)n(CC(F)(F)F)c1=O)c1ccc(F)cc1 [Compound 163] , report its measured I. Ryegrass plant response rating (0 to 100 scale). 30

// below: I. Ryegrass plant response rating (0 to 100 scale) requested for another compound
Given the entry CC(C)N(C(=O)n1oc(=O)n(C2CC2)c1=O)c1ccc(Cl)cc1 [Compound 241] , report its measured I. Ryegrass plant response rating (0 to 100 scale). 70
